Measured values drawn from patent US10800807B2 for this set.

Test method notes: Critical micellar concentration (surface tension / dye solubilization)
Assay type: physicochemical
For each of the compounds below, state its CMpH.
Answers are plain numbers.

CC[C@H]1[C@@H](O)C2C3CC[C@H]([C@H](C)CC(=O)NCCO)[C@@]3(C)CCC2[C@@]2(C)CC[C@@H](O)C[C@@H]12 (stereo partly shown) [Compound 19]    1.3
CC[C@H]1[C@@H](O)C2C3CC[C@H]([C@H](C)CC(F)(F)C(=O)O)[C@@]3(C)CCC2[C@@]2(C)CC[C@@H](O)C[C@@H]12 (stereo partly shown) [Compound 10]    3.7
C[C@H](CCC(=O)NCC(=O)O)[C@H]1CC[C@H]2[C@@H]3[C@H](O)C[C@@H]4C[C@H](O)CC[C@]4(C)[C@H]3C[C@H](O)[C@]12C [GCA, reference compound]    6.3
CC[C@H]1[C@@H](O)C2C3CC[C@H]([C@H](C)C[C@@H](CO)C(=O)O)[C@@]3(C)[C@@H](O)CC2[C@@]2(C)CC[C@@H](O)C[C@@H]12 (stereo partly shown) [Compound 4]    4.5
CC[C@@H]1C2C[C@H](O)CC[C@]2(C)C2CC[C@@]3(C)C(CC[C@@H]3[C@H](C)Cc3nc(=O)o[nH]3)C2[C@@H]1O (stereo partly shown) [Compound 14]    5.0

Each compound below has a reported value. Please supply its CMpH.
1. C[C@H](CCC(=O)O)[C@H]1CC[C@H]2[C@@H]3[C@H](O)C[C@@H]4C[C@H](O)CC[C@]4(C)[C@H]3CC[C@]12C [CDCA, chenodeoxycholic acid, reference compound]
2. CC[C@H]1[C@@H](O)[C@@H]2[C@H](CC[C@]3(C)[C@@H]([C@H](C)CCc4nn[nH]n4)[C@@H](O)C[C@@H]23)[C@@]2(C)CC[C@@H](O)C[C@@H]12 [Compound 17]
3. CC[C@H]1[C@@H](O)[C@@H]2[C@H](C[C@H](O)[C@]3(C)[C@@H]([C@H](C)C[C@H](F)C(=O)O)CC[C@@H]23)[C@@]2(C)CC[C@@H](O)C[C@@H]12 [Compound 8]
4. C[C@H](CCC(=O)O)[C@H]1CC[C@H]2[C@@H]3[C@@H](O)C[C@@H]4C[C@H](O)CC[C@]4(C)[C@H]3CC[C@]12C [UDCA, ursodeoxycholic acid, reference compound]
5. CC[C@H]1[C@@H](O)C2C3CC[C@H]([C@H](C)CCC(=O)O)[C@@]3(C)CCC2[C@@]2(C)CC[C@@H](O)C[C@@H]12 (stereo partly shown) [Ref. Cmpd. B, reference compound]

Response:
7
9.0
3.6
8.2
7.2
